- testProtocol: Components of the Cytosolic LPS Sensing Pathway: Gene Identification via Genome-wide siRNA Screen;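 further: robust z of the log signal after scaling to non-targeting control siRNA wells of the plate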
- conditionInfo: RAW264.7 macrophages, IL-1a HTRF, actives lie on both sides, screened at 100 nM (by protocol), cells primed 5 h with Pam3CSK4 first
The whole screen tested about 53,000 sequences, of which about 3,700 (7%) were called active.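 How the source made its calls: active means gene knockdowns whose robust z-score for IL-1 alpha signal is at least 2 or at most -2, so actives lie on both sides; inactive means the rest.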 The full list was thinned out, with actives kept by preference.
Respond only with the outcome that fits, drawn from 1.0 (active), 0.0 (inactive)

Consider the following illustrative entries.
sequenceCode	labelClass
CCUCCUGACCUUAAUCUUGTT against P2rx1	0.0
GACUCCCAGCUGGCUAUGATT against Ifna9	0.0
CCGAGGAGAACACUUGUAGTT against Opn4	1.0
GCAGUGUCGCAUUACAUCGTT against Sec16a	1.0
GGUUGAAGAGCAUGAGAGCTT against A330041J22Rik	0.0

Now for another entry.
Lab log entry: GGAAGCUAUAUAUCAAGAATT against Tcea1 — outcome as called in the assay? 0.0
